The origin of these recorded values is patent US20200002405A1.

Molecular target: T1, LASV Josiah (lineage IV) glycoprotein, full-length GP (Lassa virus, Josiah strain, UniProt P08669 2-491)
T1 sequence: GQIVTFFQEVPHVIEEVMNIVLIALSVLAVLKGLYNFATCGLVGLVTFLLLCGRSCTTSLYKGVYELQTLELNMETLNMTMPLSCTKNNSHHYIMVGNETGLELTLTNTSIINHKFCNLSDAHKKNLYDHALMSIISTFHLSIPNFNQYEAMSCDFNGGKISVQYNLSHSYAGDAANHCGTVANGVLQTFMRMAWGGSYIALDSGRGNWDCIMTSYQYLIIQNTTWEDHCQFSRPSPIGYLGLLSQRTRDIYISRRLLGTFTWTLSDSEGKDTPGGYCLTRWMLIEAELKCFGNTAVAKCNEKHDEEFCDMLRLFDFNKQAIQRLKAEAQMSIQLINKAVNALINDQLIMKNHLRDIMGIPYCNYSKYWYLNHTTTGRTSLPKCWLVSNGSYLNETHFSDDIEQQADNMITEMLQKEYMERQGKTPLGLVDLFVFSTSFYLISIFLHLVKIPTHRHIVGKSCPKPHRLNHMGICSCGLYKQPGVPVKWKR
Experiment: cell-based or functional assay
METRIC: IC80 (neutralization)

Example binders with recorded IC80 (neutralization):
>>> result("9.8A (antibody, V domains shown) VH: EVQLVQSGGRLVQPGGSLRLSCVASGFTFSSHAMSWVRQAPGKGLEWVSGFSGSSGTTKYADSVKGRFTISRDNSKKTLYLQMNSLRAEDTAVYYCAKGFSPFRGVQFPYFDYWGQGTLVTVSS VL: DIVMTQSPSTLSASVGDRVTITCRASQSIDRWLAWYQQKPGKAPKLLIYQASSLERGVPSRFSGSGSGTEFTLTISSLQPDDFATYYCQQYNGYPLTFGGGTKVEIKR")
"2.42 mg/L"
>>> result("36.9F (antibody, V domains shown) VH: EVQLVQSGGGLVKAGGSLKLSCGASGFTFSSYSMSWVRQAPGKGLEWVSYISSGGSSIHYADSVKGRFTISRDNAKNSLYLQMKNLRVDDTGRYYCVRDPRSGISGRYGMDVWGQGTTVTVSS VL: DIVMTQSPDSLAVSLGERATINCKSSQTVLFTSYYVAWYQQKPGQPPKLLFSGASSRESGVPDRFSAGGSGTDFYLTINSLQAEDVADYYCQQYHTPPFTFGGGTKLEIRR")
"> 20 mg/L"
>>> result("25.6A (antibody, V domains shown) VH: QVQLQESGGGLVKAGGSLRLSCAASGFMFERYSLHWVRQTPGKGLEWVSSISSLSGSHINYADSVKGRFTISRDNAKNSLSLQMNSLRVEDTAIYYCARDRRSGSSPVPLDVWGQGTTVTVSS VL: DLPVLTQPASVSGSPGQSITISCTGTSSDVGAYNYVSWYQQHPGKAPKLIIYEVKIRPSGVSNRFSGSKSGNTASLTISGLQAEDEADYFCSSYSTNSPWVFGGGTKVTVLR")
"2 mg/L"
>>> result("37.7H (antibody, V domains shown) VH: EVQLVQSGGGLVKAGGSLRLSCAASGFTFSTYSMNWIRQAPGKGLEWVASISSRSGSHINYVDSVKGRFTISRDNARDLLYLQMNSLRVDDSALYYCARDRRSGTSPLPLDVWGQGTTVTVFS VL: DQSALTQPASVSGSPGQSITISCTGTGSDIGGYNFVSWYQQYPGKAPKLIIYEVRIRASGVSNRFSGSKSGNTASLTISGLQAEDEADYYCNSYSIHSPWVFGGGTKLTVLR")
"0.532 mg/L"

# evaluate next
Could you share which IC80 (neutralization) value was measured for 37.2G (antibody, V domains shown) VH: EVQLVESGGGLVKPGGSRRLSCAASGFTFSRDTMTWVRQAPGKGLEWVASISSGSSDINYADSVKGRFTISRDNGKNSLYLHMNSLRADDTAIYYCARDPRSGISGRYGMDVWGQGTTVTVSS VL: DIVLTQSPGTLSLSPGERATLSCRASQSVNSIFLAWYQQKPGQAPRLLIYGASSRATGIPDRFSGSGSGTDFTLTISRLEPEDFAVYYCQQYHSSPKLTFGGGTKVEIKR ?
16 mg/L
